B1: DLC1 (parent)
chain: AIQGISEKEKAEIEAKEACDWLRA

Variants of: B1
TEST SUMMARY: protein stability index of a GFP-peptide fusion (GPS, HEK-293T) (PSI 1-6); higher = more stable;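 also: lentivirally expressed fusions sorted by FACS into six bins by GFP to DsRed ratio, PSI derived from sequencing read proportions per bin multiplied by bin number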
EXPERIMENTAL SETUP: c terminus: a fixed tail appended
OBSERVATION TYPE: protein stability index
Give bare numbers.

VARIANT DESCRIPTOR	protein stability index
Q3R	4.43

Hi! Can you tell me protein stability index for each of these variants?
1. A18Y
2. I2K
3. E12D
4. S6N

result:
4.33
4.56
4.43
4.54

Return reported protein stability index values for all items listed beneath this line.
1. S6Y
2. S6F

result:
[3.48, 3.86]

I would be grateful if you could provide protein stability index for each of the following entries.
1. R23Y
2. A11P
3. E12F
4. Q3S
5. A18K

result:
[3.8, 4.51, 3.82, 4.56, 4.06]

For each entry beneath this line, provide reported protein stability index.
1. G4V
2. G4T
3. S6C
4. D20L
5. L22Y
6. E7V
7. E7G

result:
1: 3.9; 2: 4.2; 3: 4.3; 4: 3.68; 5: 4.22; 6: 3.88; 7: 4.22

// for each variant below, give its protein stability index
1. I5C
2. I2T
3. E9V

result:
1: 4.66; 2: 5; 3: 3.88
